Give % effect (motility), DIROIM MF for every item shown.
Test system: Dirofilaria immitis microfilariae
PROCEDURE_SUMMARY: Dirofilaria immitis microfilariae immobility assay (DiroImager, 72 h)
CONDITION_LABEL: 0.016 µM; Dirofilaria immitis microfilariae
State just the number; it will be interpreted in %.

Ask: Quick check: % effect (motility), DIROIM MF of c1ccc(N2CCN(CC3CCCC3)CC2)cc1 [Nemacol-62] ?
Result: 0

Ask: Quick check: % effect (motility), DIROIM MF of Fc1ccc(N2CCN(CC3CCCCC3)CC2)cc1 [Nemacol-9] ?
Result: 0

Ask: Quick check: % effect (motility), DIROIM MF of O=[N+]([O-])c1ccc(N2CCN(C3CCCCC3)CC2)cc1 [Nemacol-64] ?
Result: 0

Ask: Quick check: % effect (motility), DIROIM MF of CCN1CCN(c2ccc([N+](=O)[O-])cc2)CC1 [Nemacol-8] ?
Result: 0

Ask: Quick check: % effect (motility), DIROIM MF of Clc1ccc(N2CCN(C3CCCCCC3)CC2)cc1 [Nemacol-57] ?
Result: 0

Ask: Quick check: % effect (motility), DIROIM MF of Fc1ccc(N2CCN(C3CCCCCC3)CC2)cc1 [Nemacol-51] ?
Result: 0

Ask: Quick check: % effect (motility), DIROIM MF of O=C(C1CCCC1)N1CCN(c2ccc([N+](=O)[O-])cc2)CC1 [Nemacol-17] ?
Result: 0

Ask: Quick check: % effect (motility), DIROIM MF of Clc1ccc(N2CCN(CC3CCCCC3)CC2)cc1 [Nemacol-10] ?
Result: 0

Ask: Quick check: % effect (motility), DIROIM MF of Clc1ccc(N2CCN(CC3CC4C=CC3C4)CC2)cc1 (stereo not shown) [Nemacol-46] ?
Result: 0

Ask: Quick check: % effect (motility), DIROIM MF of O=[N+]([O-])c1ccc(N2CCN(C3CCCCCC3)CC2)cc1 [Nemacol-19] ?
Result: 0

Ask: Quick check: % effect (motility), DIROIM MF of O=[N+]([O-])c1ccc(CN2CCN(C3CCCC3)CC2)cc1 [Nemacol-15] ?
Result: 0

Ask: Quick check: % effect (motility), DIROIM MF of N#Cc1ccc(N2CCN(CC3CCCC3)CC2)cc1 [Nemacol-27] ?
Result: 0

Ask: Quick check: % effect (motility), DIROIM MF of c1ccc(N2CCN(C3CCCCCCC3)CC2)cc1 [Nemacol-54] ?
Result: 0

Ask: Quick check: % effect (motility), DIROIM MF of CN1CCN(c2ccc([N+](=O)[O-])cc2)CC1 [Nemacol-7] ?
Result: 0

Ask: Quick check: % effect (motility), DIROIM MF of c1ccc(N2CCN(CC3CCCCC3)CC2)cc1 [Nemacol-12] ?
Result: 0

Ask: Quick check: % effect (motility), DIROIM MF of Cc1ccc(N2CCN(C3CCC(C)C3)CC2)cc1 (stereo not shown) [Nemacol-41] ?
Result: 0

Ask: Quick check: % effect (motility), DIROIM MF of Cc1cc(N2CCN(CC3CCCCC3)CC2)ccc1[N+](=O)[O-] [Nemacol-25] ?
Result: 0

Ask: Quick check: % effect (motility), DIROIM MF of c1cc(N2CCN(CC3CCC3)CC2)ccn1 [Nemacol-60] ?
Result: 0

Ask: Quick check: % effect (motility), DIROIM MF of c1cc(N2CCN(CC3CCCCC3)CC2)ccn1 [Nemacol-22] ?
Result: 0

Ask: Quick check: % effect (motility), DIROIM MF of CC1CCC(N2CCN(c3ccccc3)CC2)CC1 (stereo not shown) [Nemacol-50] ?
Result: 0

Ask: Quick check: % effect (motility), DIROIM MF of CC1CCC(N2CCN(c3ccc(Cl)cc3)CC2)C1 (stereo not shown) [Nemacol-44] ?
Result: 0

Ask: Quick check: % effect (motility), DIROIM MF of N#Cc1ccc(N2CCN(CC3CCCCC3)CC2)cc1 [Nemacol-24] ?
Result: 0
